Biological target: HLA-A*30:02
Test: IEDB peptide-MHC binding, purified MHC/competitive/radioactivity; filed as Kd, often an IC50 or EC50 that approximates it; bounds were set here for any values at or beyond the usual limits of such assays
Conditions: source organism: Dengue virus 2 16681-PDK53
quantity.name: pKd
Answers are plain numbers, as −log10 of the molar value.

[Q] For VVQPENLEY , what is its reported pKd?
[A] 5.69

====

Target: HLA-A*03:01
Assay: IEDB peptide-MHC binding, purified MHC/direct/fluorescence; filed as Kd, often an IC50 or EC50 that approximates it; bounds were set here for any values at or beyond the usual limits of such assays
Conditions: source organism: Orthohantavirus prospectense
quantity.name: Kd
Form entry: enter the amount, then its unit.

[Q] What does the record list as Kd for SLMSRVVYK ?
[A] 0.0772 µM

The values you see were collected from the Immune Epitope Database (IEDB).
